# system-name: Protein cereblon/Serine/threonine-protein kinase PLK4 (Homo sapiens, UniProt O00444+Q96SW2)
# Sequence (O00444 whole entry, looked up): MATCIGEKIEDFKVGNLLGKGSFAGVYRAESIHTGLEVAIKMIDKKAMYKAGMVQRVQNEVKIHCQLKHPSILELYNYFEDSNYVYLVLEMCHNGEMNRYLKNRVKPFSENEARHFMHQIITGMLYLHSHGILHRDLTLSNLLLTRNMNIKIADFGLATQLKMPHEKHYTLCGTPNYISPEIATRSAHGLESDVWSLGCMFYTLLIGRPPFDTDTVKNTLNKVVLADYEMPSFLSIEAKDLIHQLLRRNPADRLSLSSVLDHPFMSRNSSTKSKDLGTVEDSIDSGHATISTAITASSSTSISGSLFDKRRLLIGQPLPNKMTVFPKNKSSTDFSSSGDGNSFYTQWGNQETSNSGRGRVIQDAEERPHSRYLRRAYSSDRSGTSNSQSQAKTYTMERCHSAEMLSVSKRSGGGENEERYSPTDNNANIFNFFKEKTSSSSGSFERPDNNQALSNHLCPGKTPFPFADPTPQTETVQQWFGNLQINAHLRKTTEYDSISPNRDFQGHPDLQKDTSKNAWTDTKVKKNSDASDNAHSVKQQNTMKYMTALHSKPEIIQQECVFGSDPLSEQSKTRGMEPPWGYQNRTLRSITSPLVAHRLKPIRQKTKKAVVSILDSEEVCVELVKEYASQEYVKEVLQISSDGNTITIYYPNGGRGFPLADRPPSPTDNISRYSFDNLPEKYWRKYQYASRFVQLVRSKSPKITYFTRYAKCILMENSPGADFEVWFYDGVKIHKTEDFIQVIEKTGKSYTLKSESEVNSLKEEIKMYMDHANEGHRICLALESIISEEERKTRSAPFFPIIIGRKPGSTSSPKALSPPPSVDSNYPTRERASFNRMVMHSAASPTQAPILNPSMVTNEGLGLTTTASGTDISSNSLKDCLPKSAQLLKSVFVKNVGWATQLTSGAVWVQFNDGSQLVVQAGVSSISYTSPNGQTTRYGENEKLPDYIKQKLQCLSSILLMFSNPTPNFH
# Sequence (Q96SW2 whole entry, looked up): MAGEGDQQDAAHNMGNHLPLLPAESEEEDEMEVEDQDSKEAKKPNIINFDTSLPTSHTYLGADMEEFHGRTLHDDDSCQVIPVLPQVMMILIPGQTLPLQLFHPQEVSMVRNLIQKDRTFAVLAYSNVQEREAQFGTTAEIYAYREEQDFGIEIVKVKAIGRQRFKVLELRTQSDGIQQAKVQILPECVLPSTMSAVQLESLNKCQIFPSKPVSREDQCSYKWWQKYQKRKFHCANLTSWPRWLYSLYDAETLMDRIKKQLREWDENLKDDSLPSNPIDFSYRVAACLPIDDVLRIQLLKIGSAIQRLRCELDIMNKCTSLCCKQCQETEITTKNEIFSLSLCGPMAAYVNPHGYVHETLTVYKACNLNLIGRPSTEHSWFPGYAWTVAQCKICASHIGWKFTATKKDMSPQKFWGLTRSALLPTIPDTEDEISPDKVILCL
# method: Protac activity at CRBN/PLK4 in human MCF7 cells at 10 uM incubated for 48 hrs by Western blot analysis
# Format: cell-based
property-label: Activity (%)

1. Cc1cc(Nc2nc(NCc3ccc(F)cc3F)nc3c2cnn3C2CCN(C(=O)CC3CC4(C3)CN(c3ccc5c(c3)C(=O)N(C3CCC(=O)NC3=O)C5=O)C4)CC2)n[nH]1 (stereo not drawn) :: 24.3
2. Cc1cc(Nc2nc(NCc3ccc(F)cc3F)nc3c2cnn3C2CCN(C(=O)CCCCCCOc3ccc4c(c3)C(=O)N(C3CCC(=O)NC3=O)C4=O)CC2)n[nH]1 (stereo not drawn) :: 68.9
3. Cc1cc(Nc2nc(NCc3ccc(F)cc3F)nc3c2cnn3C2CCN(C(=O)C3CCN(c4ccc5c(c4)C(=O)N(C4CCC(=O)NC4=O)C5=O)CC3)CC2)n[nH]1 (stereo not drawn) :: 83.5
4. Cc1cc(Nc2nc(NCc3ccc(F)cc3F)nc3c2cnn3C2CCN(CC3CCN(c4ccc5c(c4)C(=O)N(C4CCC(=O)NC4=O)C5=O)CC3)CC2)n[nH]1 (stereo not drawn) :: 19.2
5. Cc1cc(Nc2nc(NCc3ccc(F)cc3F)nc3c2cnn3C2CCN(C(=O)c3ccc(C4CCN(c5ccc6c(c5)C(=O)N(C5CCC(=O)NC5=O)C6=O)CC4)cc3)CC2)n[nH]1 (stereo not drawn) :: 69.9
6. Cc1cc(Nc2nc(NCc3ccc(F)cc3F)nc3c2cnn3C2CCN(C(=O)CCCCCCCCCCCOc3ccc4c(c3)C(=O)N(C3CCC(=O)NC3=O)C4=O)CC2)n[nH]1 (stereo not drawn) :: 21.7
7. Cc1cc(Nc2nc(NCc3ccc(F)cc3F)nc3c2cnn3C2CCN(C(=O)CCCOc3ccc4c(c3)C(=O)N(C3CCC(=O)NC3=O)C4=O)CC2)n[nH]1 (stereo not drawn) :: 65.8
8. Cc1cc(Nc2nc(NCc3ccc(F)cc3F)nc3c2cnn3C2CCN(C(=O)CCCCCCCCCCCCCCCCCOc3ccc4c(c3)C(=O)N(C3CCC(=O)NC3=O)C4=O)CC2)n[nH]1 (stereo not drawn) :: 58.1
9. Cc1cc(Nc2nc(NCc3ccc(F)cc3F)nc3c2cnn3C2CCN(C(=O)CCCCCCCOc3ccc4c(c3)C(=O)N(C3CCC(=O)NC3=O)C4=O)CC2)n[nH]1 (stereo not drawn) :: 50.3
10. Cc1cc(Nc2nc(NCc3ccc(F)cc3F)nc3c2cnn3C2CCN(C(=O)C3CN(c4ccc5c(c4)C(=O)N(C4CCC(=O)NC4=O)C5=O)C3)CC2)n[nH]1 (stereo not drawn) :: 73.5
11. Cc1cc(Nc2nc(NCc3ccc(F)cc3F)nc3c2cnn3C2CCN(C(=O)CCCCCCCCCOc3ccc4c(c3)C(=O)N(C3CCC(=O)NC3=O)C4=O)CC2)n[nH]1 (stereo not drawn) :: 23.6
12. Cc1cc(Nc2nc(NCc3ccc(F)cc3F)nc3c2cnn3C2CCN(C(=O)CCCCOc3ccc4c(c3)C(=O)N(C3CCC(=O)NC3=O)C4=O)CC2)n[nH]1 (stereo not drawn) :: 63.6
13. Cc1cc(Nc2nc(NCc3ccc(F)cc3F)nc3c2cnn3C2CCN(C(=O)COc3ccc4c(c3)C(=O)N(C3CCC(=O)NC3=O)C4=O)CC2)n[nH]1 (stereo not drawn) :: 43.9
